Data provenance: ChEMBL document CHEMBL2413037

- System: A549
- Assay details: Cytotoxicity against human A549 cells
- Format: cell-based
Quantity kind: Activity

Some entries whose results are on file:
Molecule	Study system	Activity
CC(=O)O[C@@H]1C/C(C)=C/C/C=C(/C)CC(=O)CC2=C[C@@H](OC2=O)[C@@H]1C(C)C	A549	Non-toxic
COC(=O)/C1=C\CC[C@](C)(O)[C@H](O)CC/C(C(=O)OC)=C\C=C(/C(C)C)CC1	A549	Non-toxic
COC(=O)/C1=C\C=C(\C(C)C)CC/C(C)=C/CC/C(C)=C/CC1	A549	Non-toxic
COC(=O)/C1=C/C=C(/C(C)C)CCC2=CCC[C@](C)(OC2=O)C(=O)CC1	A549	Non-toxic
CC(=O)O[C@@H]1C/C(C)=C/CCC(C)CC(=O)CC2=C[C@@H](OC2=O)[C@@H]1C(C)C (stereo partly specified)	A549	Non-toxic
CC(C)=C1C/C=C(\C)CC/C=C(\C)CC/C=C(\C)CC1	A549	Non-toxic
COC(=O)/C1=C\CC[C@]2(C)O[C@H]2CC/C(C(=O)OC)=C/C=C(/C(C)C)CC1	A549	Non-toxic
C/C1=C\C=C(\C(C)C)CC/C(C)=C/CC/C(C)=C/CC1	A549	Non-toxic
COC(=O)/C1=C\C=C(\C(C)C)CCC2=CCC[C@](C)(OC2=O)C(=O)CC1 [KETOEMBLIDE]	A549	Non-toxic
C/C1=C/C=C(/C(C)C)CCC2=CCC[C@](C)(OC2=O)C(=O)CC1	A549	Non-toxic

Continue with the next molecule.
Asked: Give a short answer stating reported Activity for COC(=O)/C1=C\C=C(\C(C)C)CC/C(C(=O)O)=C/CC[C@]2(C)O[C@H]2CC1 .
Given back: Non-toxic

====

- Study system: Tyrosine-protein phosphatase non-receptor type 1 (Homo sapiens, UniProt P18031)
- Sequence (P18031 whole entry): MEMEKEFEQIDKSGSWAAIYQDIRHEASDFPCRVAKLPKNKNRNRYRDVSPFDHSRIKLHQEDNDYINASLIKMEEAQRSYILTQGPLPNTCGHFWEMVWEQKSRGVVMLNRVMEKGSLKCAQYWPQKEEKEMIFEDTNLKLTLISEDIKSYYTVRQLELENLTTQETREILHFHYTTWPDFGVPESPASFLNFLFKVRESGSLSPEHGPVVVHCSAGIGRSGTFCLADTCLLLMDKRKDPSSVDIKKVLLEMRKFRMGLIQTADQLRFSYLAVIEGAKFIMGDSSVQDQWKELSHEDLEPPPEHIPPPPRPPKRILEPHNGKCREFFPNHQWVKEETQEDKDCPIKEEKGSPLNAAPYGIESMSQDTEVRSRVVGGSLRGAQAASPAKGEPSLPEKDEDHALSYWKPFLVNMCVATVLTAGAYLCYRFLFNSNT
- Assay details: Inhibition of human recombinant PTP1B-mediated pNPP hydrolysis
Quantity kind: IC50 (µM)
Write the value in µM as a bare number.

// worked examples, IC50 included
Compound	Quantity kind	Observed value
COC(=O)/C1=C\C=C(\C(C)C)CC/C(C)=C/CC/C(C)=C/CC1	IC50	5.95
C/C1=C\C=C(\C(C)C)CC/C(C)=C/CC/C(C)=C/CC1	IC50	26.6
COC(=O)/C1=C\C=C(\C(C)C)CCC2=CCC[C@](C)(OC2=O)C(=O)CC1 [KETOEMBLIDE]	IC50	27.2
COC(=O)/C1=C/C=C(/C(C)C)CCC2=CCC[C@](C)(OC2=O)C(=O)CC1	IC50	6.33

Here's the next entry for you.
Asked: Read off the recorded IC50 for C/C1=C/C=C(/C(C)C)CCC2=CCC[C@](C)(OC2=O)C(=O)CC1
Given back: 15.4

====

- System: HL-60
- Assay details: Cytotoxicity against human HL60 cells
- Type: cell-based
Quantity kind: Activity

Please review the following examples before continuing.
Compound	Activity
COC(=O)/C1=C\CC[C@]2(C)O[C@H]2CC/C(C(=O)OC)=C/C=C(/C(C)C)CC1	Non-toxic
COC(=O)/C1=C\C=C(\C(C)C)CC/C(C(=O)O)=C/CC[C@]2(C)O[C@H]2CC1	Non-toxic
C/C1=C\C=C(\C(C)C)CC/C(C)=C/CC/C(C)=C/CC1	Non-toxic
CC(=O)O[C@@H]1C/C(C)=C/C/C=C(/C)CC(=O)CC2=C[C@@H](OC2=O)[C@@H]1C(C)C	Non-toxic
C/C1=C/C=C(/C(C)C)CCC2=CCC[C@](C)(OC2=O)C(=O)CC1	Non-toxic

Asked: Hello, please tell me recorded Activity for this one: CC(C)=C1C/C=C(\C)CC/C=C(\C)CC/C=C(\C)CC1
Given back: Non-toxic

Asked: Output measured Activity for this item: COC(=O)/C1=C\C=C(\C(C)C)CC/C(C)=C/CC/C(C)=C/CC1
Given back: Non-toxic

Asked: Consider the compound COC(=O)/C1=C\C=C(\C(C)C)CCC2=CCC[C@](C)(OC2=O)C(=O)CC1 [KETOEMBLIDE] and give its recorded Activity.
Given back: Non-toxic

Asked: Return reported Activity. Input compound: CC(=O)O[C@@H]1C/C(C)=C/CCC(C)CC(=O)CC2=C[C@@H](OC2=O)[C@@H]1C(C)C (stereo partly specified)
Given back: Non-toxic

Asked: // fetch Activity given entry COC(=O)/C1=C/C=C(/C(C)C)CCC2=CCC[C@](C)(OC2=O)C(=O)CC1
Given back: Non-toxic

Asked: Give recorded Activity. COC(=O)/C1=C\CC[C@](C)(O)[C@H](O)CC/C(C(=O)OC)=C\C=C(/C(C)C)CC1
Given back: Non-toxic
